target: 72 kDa type IV collagenase (Homo sapiens, UniProt P08253)
Sequence (P08253 whole entry): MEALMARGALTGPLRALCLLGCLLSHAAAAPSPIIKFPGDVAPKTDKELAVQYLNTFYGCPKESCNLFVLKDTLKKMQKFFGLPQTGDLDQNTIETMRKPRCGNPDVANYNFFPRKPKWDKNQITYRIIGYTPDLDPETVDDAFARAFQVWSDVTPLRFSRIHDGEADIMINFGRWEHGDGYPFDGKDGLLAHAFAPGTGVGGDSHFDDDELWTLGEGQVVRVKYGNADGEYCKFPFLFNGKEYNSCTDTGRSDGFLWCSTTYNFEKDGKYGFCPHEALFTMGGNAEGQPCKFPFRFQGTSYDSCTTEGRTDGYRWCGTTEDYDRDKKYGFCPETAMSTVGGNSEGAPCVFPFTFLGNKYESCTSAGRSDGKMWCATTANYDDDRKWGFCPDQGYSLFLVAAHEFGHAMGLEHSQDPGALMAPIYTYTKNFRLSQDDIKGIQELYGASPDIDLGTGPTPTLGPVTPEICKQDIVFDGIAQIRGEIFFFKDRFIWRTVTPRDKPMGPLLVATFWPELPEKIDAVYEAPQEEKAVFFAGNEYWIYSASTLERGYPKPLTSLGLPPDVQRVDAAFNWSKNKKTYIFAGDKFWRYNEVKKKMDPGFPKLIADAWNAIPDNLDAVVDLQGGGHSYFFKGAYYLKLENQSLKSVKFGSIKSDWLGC
reported.metric: Ki (µM)
Answers are plain numbers, in µM.

Which Ki value belongs to `C[C@@H](NC(=O)[C@H](O)[C@@H](O)C(=O)N1CCC[C@@H]1c1csc(NC2CC2)n1)c1ccc(-n2cccn2)cc1` ?
20.5

###

Exercise: state measured pIC50 for each of the compounds provided.
target: Disintegrin and metalloproteinase domain-containing protein 17 (Homo sapiens, UniProt P78536)
Sequence (P78536 whole entry, the tested form may be a part): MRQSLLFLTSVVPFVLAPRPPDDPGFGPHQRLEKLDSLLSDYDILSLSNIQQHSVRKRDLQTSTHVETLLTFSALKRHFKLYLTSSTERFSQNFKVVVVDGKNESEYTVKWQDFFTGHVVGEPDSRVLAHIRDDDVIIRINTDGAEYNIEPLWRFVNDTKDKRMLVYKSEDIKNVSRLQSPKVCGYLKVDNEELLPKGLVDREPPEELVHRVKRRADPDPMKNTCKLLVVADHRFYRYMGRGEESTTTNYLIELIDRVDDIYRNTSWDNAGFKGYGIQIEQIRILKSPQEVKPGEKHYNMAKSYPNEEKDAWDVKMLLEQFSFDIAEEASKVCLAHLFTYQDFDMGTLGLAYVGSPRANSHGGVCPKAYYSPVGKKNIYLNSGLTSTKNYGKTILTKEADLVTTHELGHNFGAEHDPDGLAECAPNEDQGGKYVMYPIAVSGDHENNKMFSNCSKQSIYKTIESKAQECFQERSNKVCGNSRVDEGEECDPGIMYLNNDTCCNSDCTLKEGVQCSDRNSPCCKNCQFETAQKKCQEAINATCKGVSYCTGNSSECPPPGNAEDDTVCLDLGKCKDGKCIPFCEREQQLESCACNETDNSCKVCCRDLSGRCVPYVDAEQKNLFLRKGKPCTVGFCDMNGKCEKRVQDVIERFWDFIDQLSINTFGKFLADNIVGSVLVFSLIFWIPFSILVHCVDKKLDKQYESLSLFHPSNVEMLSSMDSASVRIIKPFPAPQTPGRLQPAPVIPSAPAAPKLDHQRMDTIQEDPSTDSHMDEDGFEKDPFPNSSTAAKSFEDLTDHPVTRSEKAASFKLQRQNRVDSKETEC
Give bare numbers, as −log10 of the molar value.

CNc1nc([C@H]2CCCN2C(=O)[C@H](O)[C@@H](O)C(=O)N[C@H](C)c2ccc(-n3cccn3)cc2)c(S(C)(=O)=O)s1; 6.14
CCNc1nc([C@H]2CCCN2C(=O)[C@H](O)[C@@H](O)C(=O)N[C@H](C)c2ccc(-n3cccn3)cc2)cs1; 5.29
CNc1nc([C@H]2c3ccccc3CN2C(=O)[C@H](O)[C@@H](O)C(=O)N[C@H](C)c2ccc(-n3cccn3)cc2)cs1; 6.38

Please turn your attention to the following entry.
Look at this compound and give its reported pIC50. `CNc1nc([C@H]2c3ccc(F)cc3CN2C(=O)[C@H](O)[C@@H](O)C(=O)N[C@H](C)c2ccc(-n3cccn3)cc2)cs1`
6.54

Every entry's value here was drawn from ChEMBL document CHEMBL1770127.
